Biological target: T1, human CD47ECD-linker peptide-7his (human, UniProt Q08722 19-139)
T1 construct: also called hCD47-his; human CD47-his
T1 sequence (Q08722 other isoform, or with tags, fused parts or gaps limits assumed): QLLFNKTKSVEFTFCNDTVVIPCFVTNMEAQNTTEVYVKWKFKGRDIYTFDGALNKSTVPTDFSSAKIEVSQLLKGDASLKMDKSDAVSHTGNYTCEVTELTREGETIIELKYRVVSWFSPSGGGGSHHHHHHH
Experiment: ELISA, hCD47-his coated at 1 µg/ml, cell culture supernatant
Assign OD450 to each entry below.
Quick note: give the figure in OD450, leave out the unit.

The binder listed as 059-1.20.1 (antibody, mouse IgG1, V domains shown, also called 059-1.20.1 purified antibody) VH: EVQLQQSGPELVKPGASVNMSCKASGYTFTNYFLHWVKQKPGQGLEWIGYINPYNDGTNYNENFKGKATLTSDKSSSTAYMELSSLTSEDSAVYYCAKGGWFSMDYWGQGTSVTVSS VL: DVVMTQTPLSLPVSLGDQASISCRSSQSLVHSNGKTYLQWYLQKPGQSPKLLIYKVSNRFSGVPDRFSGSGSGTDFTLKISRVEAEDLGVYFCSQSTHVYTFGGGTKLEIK has a reported OD450 of 4

Noted for 059-1.82.1 (antibody, mouse IgG3, V domains shown) VH: EVQLQQSGPELVKPGASVKMSCKASGYTFTNYVMHWVKQKPGQGLEWIGYINPYNDGTNYNEKFKGKATLTSDKSSSTAYMELSSLTSEDSAVYYCAKGGWFSMDYWGQGTSVTVSS VL: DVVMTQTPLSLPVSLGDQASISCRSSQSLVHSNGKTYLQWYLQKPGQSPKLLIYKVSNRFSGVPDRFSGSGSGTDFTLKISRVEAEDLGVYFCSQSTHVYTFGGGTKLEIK : its OD450 reads 4

Record 059-1.100.5 (antibody, mouse IgM, V domains shown, Mouse hybridoma antibody; light chain type kappa; also called 059-1.100.5 purified antibody) VH: QVQLQQSGAELVRPGASVTLSCKASGYTFTDYEMHWVKQTPVHGLEWIGAIDPETGGTAYNQNFKGKATLTADKSSSTAYMELRSLTSEDSAVYYCTRGTPYAMDYWGQGTSVTVSS VL: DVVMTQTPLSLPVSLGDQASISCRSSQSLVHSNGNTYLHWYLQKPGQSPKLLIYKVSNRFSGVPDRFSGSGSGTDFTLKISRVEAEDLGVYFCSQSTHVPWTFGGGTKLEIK . Reported OD450: 0.81
